Test system: K562 CRISPRi cells
test-summary: Constant region variant library pooled growth screen, K562
Assay type: cell-based, human
experimental-conditions: sgRNA constant region variants; activity relative to the un-modified constant region cr995
readout-kind: Mean relative activity
One number for each entry.

Some solved entries appear below for comparison.
# molecule, Mean relative activity
rows = [
    ("cr969 (nucleic acid, listed as DNA, chemistry not fully specified) guide: GTTTAAGAGCTAAGCTGGAAACAGCATAGCAAGTTTAAATAAGGCTAGTCCGTTATCATCTTGAGAAAGAGGCACCGAGTCGGTGCT", 0.9815),
    ("cr131 (nucleic acid, chemistry not given here) guide: GTTTAAGAGCTAAGCTGGAAACAGCATAGCAAGTTTAAATAAGGCTAGTCCGTTATCAACTTGAGAAAGTGGCACAGAGTCTGTGCT", 0.96),
    ("cr754 (nucleic acid, listed as DNA, chemistry not fully specified) guide: GTTTAAGAGCTAAGCTGGAAACAGCATAGCAAGTTTAAATAAGGCTAGTCCGTTATCAACTTTAAAAAGTGGCACCGAGTCGGTGCT", 0.9804),
]

Then there is this molecule:
## Input Given the entry cr974 (nucleic acid, listed as DNA, chemistry not fully specified) guide: GTTTAAGAGCTAAGCTGGAAACAGCATAGCAAGTTTAAATAAGGCTAGTCCGTTATCAACTTGAGAAAGTGGCACCGTGTCGGTGCT , report its measured Mean relative activity.
## Output 0.9235
